System: ABUTH
methodSummary: Post-emergence action against ABUTH
Assay type: in vivo, Abutilon theophrasti
conditionDetails: post-emergence, dosage 80 g/ha, visual assessment about 3 weeks after treatment vs untreated controls
Post-emergence action against ABUTH (herbicidal action in percent) overview
readoutType: Post-emergence action against ABUTH (herbicidal action in percent) (%)

compound	unitInfo	observedMeasurement
CCCC(=O)c1c(C(F)(F)F)ccc(C(=O)Nc2nnnn2CC)c1Cl	%	90
CCn1nnnc1NC(=O)c1ccc(C(F)(F)F)c(C(=O)C2CC2C)c1Cl (centres unmarked)	%	90
CCCn1nnnc1NC(=O)c1ccc(C(F)F)c(C(C)=O)c1SC	%	100
CCCn1nnnc1NC(=O)c1ccc(C(F)(F)F)c(C(=O)C2CC2)c1OC	%	100
CCn1nnnc1NC(=O)c1ccc(C(F)(F)F)c(C(C)=O)c1C	%	100
